tested on: MCF7; experiment: Growth inhibition of human MCF7 cells by five-dose growth inhibition assay; assay type: functional
recorded.metric: GI50 (µM)

A selection of reference data follows.
>  <substance.smiles>
O=C1c2ccccc2-c2c1c1ccc(Cl)cc1c(=O)n2C[C@H](O)CO

>  <measured.number>
0.257

$$$$
>  <substance.smiles>
COC(=O)c1ccc2c3c(n(CCCn4ccnc4)c(=O)c2c1)-c1ccccc1C3=O

>  <measured.number>
0.316

$$$$

P: O=C1c2ccccc2-c2c1c1ccc(Br)cc1c(=O)n2CCCn1ccnc1
Q: O=C1c2ccccc2-c2c1c1ccc(I)cc1c(=O)n2CCCn1ccnc1
R: O=C1c2ccccc2-c2c1c1ccc(I)cc1c(=O)n2C[C@H](O)CO
S: O=C1c2ccccc2-c2c1c1ccc(Cl)cc1c(=O)n2CCCn1ccnc1
Order the items by recorded GI50; the first position goes to the largest value. Return value: ordered labels per request.
R, P, Q, S

a: CSc1ccc2c3c(n(C[C@H](O)CO)c(=O)c2c1)-c1ccccc1C3=O
b: O=C1c2ccccc2-c2c1c1ccc(C(F)(F)F)cc1c(=O)n2CCCn1ccnc1
Identify the item whose GI50 is the smaller number: a or b Could you answer with the label of the item you picked?
b
(b: 0.257 µM, a: 0.427 µM)

Measured values drawn from ChEMBL document CHEMBL3580647 for this set.
